ASSAY METHOD TEXT: RP-HPLC retention on XTerra RP18, methanol/buffer; extrapolated retention factor log kw and slope S
Type: physicochemical
MEASUREMENT SETUP: pH 4.4; slope of log k vs methanol volume fraction
Where a name gives a salt, the structure may show the parent alone.
Use S (slope) to assign classes; range list: c1 (below -4), c2 (-4 to below -3), c3 (-3 or more)

COMPOUND: CNC[C@H](O)c1cccc(O)c1 [Phenilephrine, Phenilephrine hydrochloride]
ASSIGNED CATEGORY: c3
--
COMPOUND: Cc1cc2c(s1)Nc1ccccc1N=C2N1CCN(C)CC1
ASSIGNED CATEGORY: c2
--
COMPOUND: CNCCCC12CCC(c3ccccc31)c1ccccc12 [Maprotiline, maprotiline hydrochloride]
ASSIGNED CATEGORY: c1
--
COMPOUND: CN1CCN(C2=Nc3cc(Cl)ccc3Nc3ccccc32)CC1
ASSIGNED CATEGORY: c1
--
COMPOUND: N=C(N)NC(=O)Cc1c(Cl)cccc1Cl [Guanfacine, guanfacine hydrochloride]
ASSIGNED CATEGORY: c2

Could you place Cc1nccc2c1[nH]c1ccccc12 in its proper category? Many thanks.
c2

Band for the recorded S (slope) of C[C@@H]1CCC[C@H](C)N1NC(=O)c1ccc(Cl)c(S(N)(=O)=O)c1 [Clopamide, clopamide] ?
c2

###

ASSAY METHOD TEXT: Capillary electrophoresis, effective electrophoretic mobility (acetone as EOF marker)
Type: physicochemical
MEASUREMENT SETUP: pH 4.4; I = 25 mmol/L, 11 kV, 25 °C, three replicates
Counter-ions that a name gives are not always drawn.
REPORTED PROPERTY: µeff4.4

Would you kindly share the measured µeff4.4 for Brc1c(NC2=NCCN2)ccc2nccnc12 [Brimonidine, brimonidine hydrochloride] ?
23.357 ± 0.043 10^-5 cm^2 V^-1 s^-1

For the compound CC1Cc2ccccc2N1NC(=O)c1ccc(Cl)c(S(N)(=O)=O)c1 (centres unmarked) [Indapamide, indapamide] , what µeff4.4 is on record?
0.000 ± 0.000 10^-5 cm^2 V^-1 s^-1

###

ASSAY METHOD TEXT: RP-HPLC retention on XTerra RP18, methanol/buffer; extrapolated retention factor log kw and slope S
Type: physicochemical
MEASUREMENT SETUP: pH 4.4; slope of log k vs methanol volume fraction
Where a name gives a salt, the structure may show the parent alone.
REPORTED PROPERTY: S (slope)
// response body must contain only the number

# example entries with known answers
COMPOUND: N=C(N)NC(=O)c1nc(Cl)c(N)nc1N [Amiloride, Amiloride hydrochloride]
S (slope): -3.31

COMPOUND: CN[C@@H](C)[C@@H](O)c1ccccc1 [Pseudoephedrine, pseudoephedrine hydrochloride]
S (slope): -2.60

COMPOUND: COc1ccccc1OCCNCC(O)COc1cccc2[nH]c3ccccc3c12 (stereo not shown) [Carvedilol, carvedilol]
S (slope): -5.84

I would be grateful if you could share the reported S (slope) for c1ccc2c(c1)OCC(C1=NCCN1)O2 (stereo not shown) [Idazoxan, idazoxan hydrochloride] .
-2.66

Which S (slope) reading was recorded for the compound c1cc2c(c(NC3=NCCN3)c1)CCCC2 [Tramazoline, Tramazoline hydrochloride] ?
-3.43

// lookup S (slope) for Cc1cc(C(C)(C)C)cc(C)c1CC1=NCCN1 [Xylometazoline, xylometazoline hydrochloride]
-4.22

# input compound: Brc1c(NC2=NCCN2)ccc2nccnc12 [Brimonidine, brimonidine hydrochloride] ; wanted: its S (slope)
-4.78

Param item = CC1Cc2ccccc2N1NC(=O)c1ccc(Cl)c(S(N)(=O)=O)c1 (stereo not shown) [Indapamide, indapamide] ; retrieve measured S (slope).
-4.16

Query (compound): Clc1ccc2nsnc2c1NC1=NCCN1 [Tizanidine, tizanidine hydrochloride] ; field requested: S (slope)
-2.65

Consider the compound shown here: CN[C@@H](C)[C@H](O)c1ccccc1 [Ephedrine, ephedrine hydrochloride] What is its recorded S (slope)?
-2.41

Dear colleague, I am looking for the recorded S (slope) of the following compound: c1ccc2c(CC3=NCCN3)cccc2c1 [Naphazoline, naphazoline hydrochloride]
-3.48

Report S (slope) for CN1CCN2c3ccccc3Cc3ccccc3C2C1 (stereo not shown) [Mianserin, mianserin hydrochloride] please.
-4.24

Can you share its S (slope)? I mean this compound: COc1nc(C)nc(Cl)c1N=C1NCCN1 [Moxonidine, moxonidine hydrochloride]
-3.21
